Measured values drawn from paper PMC5007854 for this set.

Tested on: Pseudomonas aeruginosa ATCC 27853
Test: Broth microdilution antibacterial susceptibility (MIC/MBC)
Type: cell-based
Settings: Pseudomonas aeruginosa, ATCC27853; ≥99.9% reduction of original inoculum; read-out: MBC, Pa ATCC 27853

| molecule | MBC |
| --- | --- |
| COc1ccc(/C=C/[N+](=O)[O-])cc1OC [Compound 22] | > 64 µg/mL |
| CC/C(=C\c1ccc(Cl)cc1)[N+](=O)[O-] [Compound 3] | > 64 µg/mL |
| C/C(=C\c1ccc(N(C)C)cc1)[N+](=O)[O-] [Compound 5] | > 64 µg/mL |
| C/C(=C\c1ccc(O)cc1)[N+](=O)[O-] [Compound 17, 4-((E)-2-nitroprop-1-enyl) phenol] | 32 µg/mL |
| CCOc1cccc(/C=C/[N+](=O)[O-])c1O [Compound 27, 2-ethoxy-6-((E)-2-nitrovinyl) phenol] | > 64 µg/mL |
| CN(C)c1ccc(/C=C/[N+](=O)[O-])cc1 [Compound 4] | > 64 µg/mL |
| O=[N+]([O-])/C=C/c1ccc(Cl)cc1 [Compound 1, 1-chloro-4-((E)-2-nitrovinyl) benzene] | 64 µg/mL |
| CC/C(=C\c1ccc(OC)cc1)[N+](=O)[O-] [Compound 15] | > 64 µg/mL |
| C/C(=C\c1cccc(O)c1)[N+](=O)[O-] [Compound 20, 3-((E)-2-nitroprop-1-enyl) phenol] | 32 µg/mL |

###

Test system: L. donovani intracellular amastigotes
Assay: Anti-amastigote activity in ex vivo macrophage model
Format: cell-based, Leishmania donovani
Settings: Leishmania donovani, Peritoneal macrophage, in Mus musculus; intracellular amastigotes in BALB/c peritoneal macrophages, 48 h; read-out: L. donovani amastigotes IC50 ± SEM

| compound | unit-info | IC50 |
| --- | --- | --- |
| COc1ccc(/C=C(\C)[N+](=O)[O-])cc1 | nM | 26.4 |
| CC/C(=C\c1ccc(O)cc1)[N+](=O)[O-] [Compound 18, 4-((E)-2-nitrobut-1-enyl) phenol] | nM | 61.6 |
| C[C@@H]1[C@H](O)[C@@H](C)/C=C/C=C/C=C/C=C/C=C/C=C/C=C/[C@H](O[C@@H]2O[C@H](C)[C@@H](O)[C@H](N)[C@@H]2O)C[C@@H]2O[C@](O)(C[C@@H](O)C[C@@H](O)[C@H](O)CC[C@@H](O)C[C@@H](O)CC(=O)O[C@H]1C)C[C@H](O)[C@H]2C(=O)O [AmB, Amphotericin B, reference compound] | nM | 27.8 |

###

Test system: Escherichia coli ATCC 25922
Test: Broth microdilution antibacterial susceptibility (MIC/MBC)
Type: cell-based
Conditions: Escherichia coli, ATCC25922; ≥99.9% reduction of original inoculum; read-out: MBC, Ec ATCC 25922

| molecule | MBC |
| --- | --- |
| O=[N+]([O-])/C=C/c1cccc(O)c1 [Compound 19, 3-((E)-2-nitrovinyl) phenol] | > 64 µg/mL |
| O=C(O)c1cn(C2CC2)c2cc(N3CCNCC3)c(F)cc2c1=O [Cipro, Ciprofloxacin, reference compound] | < 0.03 µg/mL |
| CN(C)c1ccc(/C=C/[N+](=O)[O-])cc1 | > 64 µg/mL |
| O=[N+]([O-])/C=C/c1c[nH]c2ccccc12 [Compound 28, 3-((E)-2-nitrovinyl)-1H-indole] | > 64 µg/mL |
| CC/C(=C\c1ccc(Cl)cc1)[N+](=O)[O-] | > 64 µg/mL |
| CC/C(=C\c1c[nH]c2ccccc12)[N+](=O)[O-] [Compound 30, 3-((E)-2-nitrobut-1-enyl)-1H-indole] | > 64 µg/mL |
| O=[N+]([O-])/C=C/c1ccc(Cl)cc1 [Compound 1, 1-chloro-4-((E)-2-nitrovinyl) benzene] | 32 µg/mL |
| C/C(=C\c1ccc(Cl)cc1)[N+](=O)[O-] | > 64 µg/mL |
